Hello, the source for this data is patent US20050271676A1, in case you need it.

TESTED_ON: HLA-A*1101 (Homo sapiens, UniProt P04439, A114D/D185E/E176A/F33Y/L180Q/S129P/T187R)
EXPERIMENT_SUMMARY: purified HLA class I binding assay, A*1101
CONDITION_INFO: Table XVII, HIV A11 motif peptides; binding value A*1101, unit not given
# label = criterion met if A*1101 (binding information) < 0.0004 else criterion not met

Inquiry: Does VAVIIVASGY have A*1101 (binding information) strictly under 0.0004?
Reply text: criterion met

Inquiry: Item ISPILTVPVK : A*1101 (binding information) beneath 0.0004, strictly?
Reply text: criterion not met

---

Give A*1101 (HIV A11 Motif Peptides with Binding Information) for every item shown.
TESTED_ON: HLA-A*1101 (Homo sapiens, UniProt P04439, A114D/D185E/E176A/F33Y/L180Q/S129P/T187R)
EXPERIMENT_SUMMARY: purified HLA class I binding assay, A*1101
CONDITION_INFO: binding value to purified HLA-A*1101 in Table XVII; unit not given

Recorded results for 5 sequences are shown here.
{"MONOMER_SEQUENCE": "AANREIKLGK", "MEAS_VALUE": 0.0016}
{"MONOMER_SEQUENCE": "DVKQLTEAVQ", "MEAS_VALUE": 0.0240}
{"MONOMER_SEQUENCE": "ANRIETKLGK", "MEAS_VALUE": 0.0001}
{"MONOMER_SEQUENCE": "YLAWVPAIIK", "MEAS_VALUE": 0.0570}
{"MONOMER_SEQUENCE": "WTYQIYQEPF", "MEAS_VALUE": 0.0540}

Lab note: next sequence to report on.
Sure, the documented A*1101 (HIV A11 Motif Peptides with Binding Information) for NTPVPAIK is 0.0003

---

TESTED_ON: HLA-DRB1*0301 (DR3) (Homo sapiens, UniProt P01903+P01911, A100K/A102G/A103R/A169T/F55Y/I96L/K41T/L162R/M171V/P40S/Q125H/Q178H/Q39Y/R42S/S66N/T106N/T262R/W38E/Y61H)
Construct: endogenous in cells; host or cells: MAT
Sequence (P01903 26-254 partner, other chains not shown): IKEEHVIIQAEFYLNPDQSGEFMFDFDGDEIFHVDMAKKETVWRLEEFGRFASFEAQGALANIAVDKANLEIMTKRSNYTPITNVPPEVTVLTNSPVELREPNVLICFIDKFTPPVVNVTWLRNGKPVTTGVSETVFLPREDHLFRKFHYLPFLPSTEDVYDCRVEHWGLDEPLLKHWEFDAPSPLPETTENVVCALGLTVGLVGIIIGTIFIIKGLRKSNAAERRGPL
EXPERIMENT_SUMMARY: purified HLA class II binding assay, DRB1*0301 (DR3), pH 4.5
No end group written: not given here.
MEASURED_METRIC: IC50 (nM)
Answers are plain numbers, in nM.

{"MONOMER_SEQUENCE": "GAVVIQDNSDLKVVP [Peptide 35.0133]", "READOUT_UNIT": "nM", "IC50": 1000}

Item: WAGIKQEFGIPYNPQ [Peptide 35.0131] | IC50: 300

---

So I've got a bunch of sequences here, and I need their IC50 values.
TESTED_ON: HLA-A*1101 (Homo sapiens, UniProt P04439, A114D/D185E/E176A/F33Y/L180Q/S129P/T187R)
EXPERIMENT_SUMMARY: purified HLA class I binding assay, A*1101
No end group written: not given here.
Answers are plain numbers, in nM.

{"MONOMER_SEQUENCE": "VMIVWQVDR [Peptide 1273.08]", "READOUT_UNIT": "nM", "IC50": 273}
{"MONOMER_SEQUENCE": "NTPVFAIKK [1273.02]", "READOUT_UNIT": "nM", "IC50": 100}
{"MONOMER_SEQUENCE": "IVIWGKTPK [1193.0200]", "READOUT_UNIT": "nM", "IC50": 16.2}
{"MONOMER_SEQUENCE": "TTLFCASDAK [1273.07]", "READOUT_UNIT": "nM", "IC50": 27.3}

Field: next sequence
The reported IC50 of the sequence RIVELLGRR [1273.04] was 600
